- Tested on: SK-MEL-2 melanoma
- assay-details: NCI-60 one-dose screen, 48 h
- condition-label: 10 µM unless noted
About 83,000 compounds went through this panel and 20% of them were active in at least one assay; those are over-represented in the sample as a whole. Activity calls are given as the source filed them. The calls were made as follows: active = growth percent below 10; inactive = the rest.
Outcomes: active, inactive

{"compound": "COc1ccc(/C=C/C(=O)c2ccc(NC(=O)CSc3nnc(-c4ccc(Cl)cc4)n3-c3ccccc3)cc2)cc1", "discrete-label": "inactive"}
{"compound": "COc1cc(/C=C/C(=O)c2c(C)nc3ccccc3c2C)ccc1OCCCOc1cc2c(cc1OC)C(=O)N1CCC[C@H]1C=N2", "discrete-label": "active"}
{"compound": "CCc1ccc(-c2ccc(NC3CCCCCC3)nn2)cc1S(N)(=O)=O", "discrete-label": "inactive"}
{"compound": "CC(=O)N[C@@H](CCC(N)=O)C(=O)O", "discrete-label": "inactive"}
{"compound": "CCc1ccc(Nc2ncnc3c2cnn3-c2cccc(Br)c2)cc1", "discrete-label": "inactive"}
{"compound": "CCN1CCN(Cc2ccc(NC(=O)c3nc4ccc5[nH]ncc5c4c4c3CCCC4)cc2C(F)(F)F)CC1", "discrete-label": "inactive"}
{"compound": "COc1ccc2[nH]c(O)c(/C=c3/ccc4c(c3)N=C(c3ccc(F)cc3)N=4)c2c1", "discrete-label": "inactive"}
{"compound": "NC(=Nc1ccccc1)SCCCSC(N)=Nc1ccccc1", "discrete-label": "inactive"}
{"compound": "COc1cc(NCCCCC(C)N)c2nccc(C)c2c1 (stereo not given)", "discrete-label": "inactive"}
{"compound": "C#CCNC(=S)N/N=C(\\C)c1ccccn1", "discrete-label": "inactive"}

###

- Tested on: NCI-H23 lung
- assay-details: NCI-60 one-dose screen, 48 h (100 = growth as untreated, 0 = no growth, -100 = all killed)
- condition-label: 10 µM unless noted
The panel holds about 83,000 compounds, 20% with a hit somewhere; the sample as a whole holds those more often.
readout: growth (%)

{"molecule": "COc1cc(C2CC(c3cccc(Nc4ccnc5cc(Cl)ccc45)c3)=NN2c2ccc(Cl)cc2)cc(OC)c1OC (stereo not given)", "system-name": "NCI-H23 lung", "unit-abbrev": "%", "reported-measurement": 73.8}
{"molecule": "CCOC(CN1CCN(CC(C)C(=O)c2ccccc2)CC1)c1ccccc1 (stereo not given)", "system-name": "NCI-H23 lung", "unit-abbrev": "%", "reported-measurement": 112}
{"molecule": "C#CC[C@@H]1C[C@]2(C)[C@H]3CC[C@@H]4[C@H]5C(C(=C)C)CC[C@]5(C(=O)NCCCN5CCN(CCCN)CC5)CC[C@@]4(C)[C@]3(C)CC[C@H]2C(C)(C)[C@H]1OC(C)=O (stereo not given in full)", "system-name": "NCI-H23 lung", "unit-abbrev": "%", "reported-measurement": 3.21}
{"molecule": "CCCCN(CCCC)CCCN=c1nc2c(c(N)n1-c1ccccc1)c(=S)n(-c1ccccc1)c(=S)n2-c1ccccc1", "system-name": "NCI-H23 lung", "unit-abbrev": "%", "reported-measurement": -56.3}
{"molecule": "CC(=O)c1cccc(Nc2ncnc3ccc(NC(=O)c4ccco4)cc23)c1", "system-name": "NCI-H23 lung", "unit-abbrev": "%", "reported-measurement": 88.7}
{"molecule": "CCN(CC)CCCC(C)Nc1cnc(C(=O)Nc2cccc3ccc(OC)nc23)cn1 (stereo not given)", "system-name": "NCI-H23 lung", "unit-abbrev": "%", "reported-measurement": 96.1}
{"molecule": "SCc1ccc(CS)cc1", "system-name": "NCI-H23 lung", "unit-abbrev": "%", "reported-measurement": 106}
{"molecule": "CCOC(=O)c1ccc(N(CCC(=O)O)C(C)=O)cc1", "system-name": "NCI-H23 lung", "unit-abbrev": "%", "reported-measurement": 111}
{"molecule": "COc1ccc(-c2n[nH]nc2-c2cc(OC)c3c(c2)OCO3)cc1", "system-name": "NCI-H23 lung", "unit-abbrev": "%", "reported-measurement": 10.4}
{"molecule": "Brc1ccccc1Cn1c(-c2cncs2)nc2ccccc21", "system-name": "NCI-H23 lung", "unit-abbrev": "%", "reported-measurement": 85.4}
{"molecule": "Nc1n[nH]c2ccc([C@@H]3Nc4c(F)cc5[nH]ncc5c4[C@H]4C5CCC(C5)[C@@H]34)cc12 (stereo not given in full)", "system-name": "NCI-H23 lung", "unit-abbrev": "%", "reported-measurement": 37.8}
{"molecule": "Cc1cc(N=Nc2ccc(-c3ccc(N=Nc4ccc(O)c(C(=O)O)c4)cc3)cc2)c(N)c(N=Nc2ccc(C(=O)O)cc2)c1N", "system-name": "NCI-H23 lung", "unit-abbrev": "%", "reported-measurement": 93.4}
{"molecule": "CCN(CC)CCCNc1cccc2c(C)cc(OC)nc12", "system-name": "NCI-H23 lung", "unit-abbrev": "%", "reported-measurement": 90.5}
{"molecule": "O=C(c1ccccc1)N(CCCCl)C(=O)N(CCCCl)C(=O)c1ccccc1", "system-name": "NCI-H23 lung", "unit-abbrev": "%", "reported-measurement": 83.1}
{"molecule": "CCCCCCCCCC1=NC(C)(C)CN1C(C)(C)CO", "system-name": "NCI-H23 lung", "unit-abbrev": "%", "reported-measurement": 89.1}
{"molecule": "CC1=C(C(=O)Nc2ccc(F)cc2)C(c2ccc(Cl)cc2)C2=C(CC(C)(C)CC2=O)N1 (stereo not given)", "system-name": "NCI-H23 lung", "unit-abbrev": "%", "reported-measurement": 86}
{"molecule": "COc1ccc(Nc2ncnc3c2sc2nc(C)cc(C)c23)cc1", "system-name": "NCI-H23 lung", "unit-abbrev": "%", "reported-measurement": 111}
{"molecule": "CCCc1cc2c(cc1CN(Cc1cc3c(cc1CCC)OCO3)C(=N)OCC)OCO2", "system-name": "NCI-H23 lung", "unit-abbrev": "%", "reported-measurement": 79.8}
{"molecule": "CCN(CC)CCNc1c(C)cc(CO)c(Cl)c1C", "system-name": "NCI-H23 lung", "unit-abbrev": "%", "reported-measurement": 102}
{"molecule": "COc1ccc(C2C3CCc4ccccc4C3=NN2C(=O)c2cc(OC)c(OC)c(OC)c2)cc1O (stereo not given)", "system-name": "NCI-H23 lung", "unit-abbrev": "%", "reported-measurement": 98}
{"molecule": "Cc1ccc(-c2nc3ccccc3c(=O)n2/N=C/c2cccc3ccccc23)cc1", "system-name": "NCI-H23 lung", "unit-abbrev": "%", "reported-measurement": 77.6}
{"molecule": "CCOC(=O)C1=C(C)NC(SCc2nnc(-c3ccc(Cl)cc3)o2)=NC1c1ccc(Br)cc1 (stereo not given)", "system-name": "NCI-H23 lung", "unit-abbrev": "%", "reported-measurement": 75.7}
{"molecule": "COc1cccc(Cn2c(-c3nonc3NC(C)=O)nc3ccccc32)c1", "system-name": "NCI-H23 lung", "unit-abbrev": "%", "reported-measurement": 39.8}
{"molecule": "CCN(CC)Cc1cc(Nc2ccnc3cc(Cl)ccc23)cc(-c2ccc(Cl)cc2)c1O", "system-name": "NCI-H23 lung", "unit-abbrev": "%", "reported-measurement": 24}
{"molecule": "CCCCCCCCNC(C)C(O)c1ccc(SC(C)C)cc1 (stereo not given)", "system-name": "NCI-H23 lung", "unit-abbrev": "%", "reported-measurement": 74.2}
{"molecule": "CC1=NOCC(=O)N1", "system-name": "NCI-H23 lung", "unit-abbrev": "%", "reported-measurement": 106}
{"molecule": "O=C(c1ccc(C(F)(F)F)c(Cl)c1)N(Cc1ccc(Cl)cc1)c1ccc(-c2cc(C(F)(F)F)[nH]n2)c(O)c1", "system-name": "NCI-H23 lung", "unit-abbrev": "%", "reported-measurement": 6.5}
{"molecule": "CCc1ccc(Nc2cc(C)c3ccc(O)cc3n2)cc1", "system-name": "NCI-H23 lung", "unit-abbrev": "%", "reported-measurement": 90.4}
{"molecule": "Nc1nonc1-c1nc2ccccc2n1Cc1ccc(F)cc1", "system-name": "NCI-H23 lung", "unit-abbrev": "%", "reported-measurement": 70.6}
{"molecule": "CN1CCN(Cc2ccc(NC(=O)c3cncc(C#Cc4ncc5ccccn45)c3)cc2C(F)(F)F)CC1", "system-name": "NCI-H23 lung", "unit-abbrev": "%", "reported-measurement": 9.22}
{"molecule": "NCCCOc1cc2ccccc2cc1C(=O)NCCCOc1cc2ccccc2cc1C(=O)Nc1ccc(Cl)cc1O", "system-name": "NCI-H23 lung", "unit-abbrev": "%", "reported-measurement": -67.6}
{"molecule": "FC1(F)CCN(Cc2c[nH]c3cc(Cl)ccc23)C[C@H]1CCc1ccccc1", "system-name": "NCI-H23 lung", "unit-abbrev": "%", "reported-measurement": 67.7}
{"molecule": "COc1ccc(-c2cn(-c3cccc(C(=O)/C=C/c4ccc(O)c(OC)c4)c3)c(=O)[nH]2)cc1", "system-name": "NCI-H23 lung", "unit-abbrev": "%", "reported-measurement": 62.5}
{"molecule": "Cc1ccc(NC(=O)c2[nH]c(SCCN(C)C)nc2-c2ccc(F)cc2)cc1C#Cc1cnc2cccnn12", "system-name": "NCI-H23 lung", "unit-abbrev": "%", "reported-measurement": 66.7}
{"molecule": "CCCCCCCCCCCCCCCCCC1=NC(C)(C)CN1C(C)(C)CO", "system-name": "NCI-H23 lung", "unit-abbrev": "%", "reported-measurement": -14.5}
{"molecule": "CC(OC(=O)Nc1cccc(Cl)c1)C(=O)O (stereo not given)", "system-name": "NCI-H23 lung", "unit-abbrev": "%", "reported-measurement": 97.9}
{"molecule": "CCOC(=O)C(Nc1ccccc1)C(=O)OCC", "system-name": "NCI-H23 lung", "unit-abbrev": "%", "reported-measurement": 108}
{"molecule": "CCCCCCCCCCCCCCCCOc1ccc(S(=O)(=O)N(C)C)cc1[N+](=O)[O-]", "system-name": "NCI-H23 lung", "unit-abbrev": "%", "reported-measurement": 97.4}
{"molecule": "O=C(CCc1nc2sc3c(c2c(=O)[nH]1)CCC3)NCc1cn(-c2ccccc2)nc1-c1ccccc1", "system-name": "NCI-H23 lung", "unit-abbrev": "%", "reported-measurement": 66.2}
{"molecule": "COc1cc(-c2n/c(=C\\c3c(O)[nH]c4cc(Cl)ccc34)cc3c2=Nc2ccccc2-3)cc(OC)c1OC", "system-name": "NCI-H23 lung", "unit-abbrev": "%", "reported-measurement": 45.2}
